The reported numbers originate from paper PMC12363949.

Molecular target: c20S β2 (Homo sapiens, UniProt P49720+Q99436)
Test: Human c20S β2 inhibition assay, fluorogenic substrate Z-VLR-amc
QUANTITY NAME: IC50

IC50 for C[C@@]12OC(=O)[C@]1([C@@H](O)[C@@H]1C=CCCC1)NC(=O)[C@@H]2CCCl [Marizomib] is ~300 nM
